Test system: NCI-H460
Test: NCI tumour cell line growth inhibition, 48 h
Active and inactive are the calls of the source. Rule as the data show it: active = GI50 up to about 1.1 µM and inactive = higher.
Respond only with the outcome that fits, drawn from active, inactive

Example entries and their recorded answers appear below.
COC(=O)C12C3C4(C(=O)OC)C1C1(C(=O)OC)C2C3(C(=O)OC)C41C(=O)N(C(C)C)C(C)C (centres undefined)    inactive
CCOc1ncnc2ccc(Cl)c(I)c12    inactive
CC1CCN(c2nnc(Cl)cc2C(=O)c2ccccc2)CC1    inactive
CC(=O)NC1=C(C)C(=O)c2c(nc3n2CCC3OC(=O)c2ccccc2)C1=N (centres undefined)    inactive
COc1cc(O)c2c(=O)c(OC)c(-c3ccc(OC)c(OC)c3)oc2c1.[Zn+2]    inactive
C=CC[C@H]1[C@@H](O[Si](C)(C)C(C)(C)C)[C@H](n2ccc(=O)[nH]c2=O)O[C@@H]1CO[Si](C)(C)C(C)(C)C    inactive
O=C1Nc2ccccc2/C1=C1/Nc2ccccc2/C1=N/OCCO    active
CC(C)=C[C@@H]1C[C@H](n2cc(C)c(=O)[nH]c2=O)ON1CCO    inactive

q: Record request — test call for "C=CCc1cccc2cc(C(=O)Nc3ccc(C)cc3)c(=N)oc12"
a: inactive

q: Record request — test call for "S=C(NCCc1ccccn1)c1nc[nH]c1C(=S)NCCc1ccccn1"
a: inactive

q: Record request — test call for "CC(C)(C)OC(=O)[C@@H]1CCC(=S)N1Cc1ccccc1"
a: inactive

q: Record request — test call for COC(=O)C1C(O)C(C)C(O)C(C)(O)/C=C\C=C(C)C(=O)Nc2c(C)c(OC(C)=O)c3c(c2O)C(=O)C(C)=C2OCOC(=C23)C(C)=CC(C)(O)C(O)C(C)C1OC(C)=O (centres undefined)
a: inactive

q: Record request — test call for "O=C(/C=C(O)/C(=C/C(=O)c1ccccc1)NN=C(c1ccccc1)c1ccccc1)c1ccccc1"
a: inactive

q: Record request — test call for O=C1CSC2=NC3=C(CSC/C3=C\c3ccc(Cl)cc3)C(c3ccc(Cl)cc3)N12 (centres undefined)
a: inactive

q: Record request — test call for "O=C(Nc1ccccc1C(=O)NCc1ccccc1)/C(=C/c1ccccc1O)NC(=O)c1ccccc1"
a: inactive

q: Record request — test call for "CCOC(=O)/C=C(\C(=O)OCC)n1ccc(=O)n(Cc2cnnn2COCCOC(C)=O)c1=O"
a: inactive
